Source listed as ChEMBL document CHEMBL1157764.

species on record: Homo sapiens; test: Binding affinity to RBC membrane receptor in 150 uU/mL neuraminidase pretreated human RBCs relative to untreated RBCs
// reported Activity per item
Unit % implied. Number only.

Example cases with answers are listed next.
{"substance": "H-NYRRRKRITELRKILVEKLR-OH", "value.type": "Activity", "reading.unit": "%", "val": 68}
{"substance": "H-YFFEYELRKKTQSFRNKNSI-OH", "value.type": "Activity", "reading.unit": "%", "val": 17}
{"substance": "H-ASLKETMNKIDTIEKKIEEFY-OH", "value.type": "Activity", "reading.unit": "%", "val": 12}
{"substance": "H-RLKENKDYDVVSSIIQHLDN-OH", "value.type": "Activity", "reading.unit": "%", "val": 55}

Provide only the value of recorded Activity for `H-DNNKECLIDPLDVQKNLLNEY-OH`
13

Provide only the value of recorded Activity for `H-FVLAPDEMVYLFYHGNEKKN-OH`
5

###

experiment: Binding affinity to RBC membrane receptor in human RBCs assessed as dissociation constant by gamma counter
value.type: Kd (nM)
Unit nM implied. Number only.

{"substance": "H-ASLKETMNKIDTIEKKIEEFY-OH", "reading.unit": "nM", "val": 1200}
{"substance": "H-NYRRRKRITELRKILVEKLR-OH", "reading.unit": "nM", "val": 1700}

Provide only the value of recorded Kd for `H-FVLAPDEMVYLFYHGNEKKN-OH`
850

###

// reported Activity per item
species on record: Homo sapiens; experiment: Binding affinity to RBC membrane receptor in human RBCs assessed as specific binding activity measured as ratio of specifically bound peptide/added peptide by gamma counter

Example cases with answers are listed next.
{"chemical.string": "CC[C@H](C)[C@H](NC(=O)[C@H](CCCCN)NC(=O)CNC(=O)CNC(=O)[C@H](Cc1ccc(O)cc1)NC(=O)[C@H](CC(=O)O)NC(=O)[C@H](CO)NC(=O)[C@H](CC(C)C)NC(=O)[C@@H](N)CCCNC(=N)N)C(=O)N[C@@H](CC(C)C)C(=O)N[C@H](C(=O)N[C@@H](CCCCN)C(=O)NCC(=O)N[C@H](C(=O)N[C@@H](CC(N)=O)C(=O)N[C@@H](C)C(=O)N[C@@H](CCC(N)=O)C(=O)N[C@@H](CC(N)=O)C(=O)N[C@H](C(=O)N[C@@H](CC(C)C)C(=O)O)[C@H](C)O)[C@@H](C)O)C(C)C", "Activity": "> 2%"}
{"chemical.string": "CC[C@H](C)[C@H](NC(=O)[C@H](CCC(N)=O)NC(=O)CNC(=O)[C@H](C)NC(=O)[C@@H](N)CC(C)C)C(=O)N[C@@H](CC(N)=O)C(=O)NCC(=O)N[C@@H](CC(C)C)C(=O)N[C@@H](CC(N)=O)C(=O)N[C@@H](CC(=O)O)C(=O)N[C@@H](CC(C)C)C(=O)N[C@@H](Cc1ccc(O)cc1)C(=O)NCC(=O)N[C@@H](CCCNC(=N)N)C(=O)N[C@@H](CC(N)=O)C(=O)N[C@@H](CO)C(=O)N[C@@H](CCCCN)C(=O)N[C@@H](CCCCN)C(=O)N[C@H](C(=O)N[C@@H](Cc1ccc(O)cc1)C(=O)O)[C@@H](C)O", "Activity": "< 2%"}
{"chemical.string": "CC(C)C[C@H](NC(=O)[C@H](CC(C)C)NC(=O)[C@H](CO)NC(=O)[C@@H]1CCCN1C(=O)[C@@H](NC(=O)[C@H](CC(C)C)NC(=O)[C@H](Cc1ccc(O)cc1)NC(=O)[C@H](CO)NC(=O)[C@H](CCCCN)NC(=O)[C@H](CCCCN)NC(=O)[C@H](CCCCN)NC(=O)CNC(=O)[C@@H](NC(=O)[C@H](CO)NC(=O)[C@H](CS)NC(=O)[C@H](CCCCN)NC(=O)[C@H](Cc1cnc[nH]1)NC(=O)[C@H](Cc1ccc(O)cc1)NC(=O)[C@H](CC(=O)O)NC(=O)[C@@H](N)CO)C(C)C)[C@@H](C)O)C(=O)O", "Activity": "< 2%"}
{"chemical.string": "CC[C@H](C)[C@H](NC(=O)[C@H](CC(C)C)NC(=O)[C@@H](N)C(C)C)C(=O)N[C@@H](C)C(=O)N[C@@H](CCC(=O)O)C(=O)NCC(=O)N[C@@H](Cc1ccc(O)cc1)C(=O)N[C@@H](CCCCN)C(=O)N[C@@H](CCCNC(=N)N)C(=O)N[C@H](C(=O)N[C@@H](CC(N)=O)C(=O)N[C@@H](CCC(=O)O)C(=O)N[C@@H](CCCCN)C(=O)N[C@@H](CCC(=O)O)C(=O)N[C@@H](CC(=O)O)C(=O)N[C@H](C(=O)N[C@@H](CC(=O)O)C(=O)N[C@@H](CCCNC(=N)N)C(=O)N[C@@H](CCCNC(=N)N)C(=O)O)[C@@H](C)CC)[C@@H](C)CC", "Activity": "> 2%"}

Lab note: next compound to report on.
Provide only the value of recorded Activity for `CC[C@H](C)[C@H](NC(=O)[C@@H](NC(=O)[C@H](CC(=O)O)NC(=O)[C@H](CC(N)=O)NC(=O)[C@H](Cc1cnc[nH]1)NC(=O)[C@@H](NC(=O)[C@H](Cc1ccc(O)cc1)NC(=O)[C@H](CS)NC(=O)[C@@H](N)CCCNC(=N)N)C(C)C)C(C)C)C(=O)N[C@@H](CCCCN)C(=O)N[C@@H](Cc1ccccc1)C(=O)NCC(=O)N[C@@H](CCC(=O)O)C(=O)N[C@@H](CCC(=O)O)C(=O)N[C@@H](CC(N)=O)C(=O)N[C@@H](CO)C(=O)N[C@@H](CC(C)C)C(=O)N[C@@H](CCCCN)C(=O)N[C@@H](CS)C(=O)N[C@@H](CO)C(=O)O`
> 2%

###

species on record: Homo sapiens; test: Binding affinity to RBC membrane receptor in human RBCs assessed as specific binding activity measured as ratio of specifically bound peptide/added peptide by gamma counter
value.type: Activity

{"chemical.string": "CC(C)C[C@H](NC(=O)[C@H](CCCCN)NC(=O)[C@H](Cc1ccc(O)cc1)NC(=O)[C@H](CC(C)C)NC(=O)CNC(=O)[C@H](CC(=O)O)NC(=O)[C@H](CO)NC(=O)[C@H](CO)NC(=O)[C@H](Cc1ccc(O)cc1)NC(=O)[C@H](CCCCN)NC(=O)[C@H](CC(C)C)NC(=O)[C@H](Cc1cnc[nH]1)NC(=O)[C@H](CO)NC(=O)[C@H](CO)NC(=O)[C@@H]1CCCN1C(=O)[C@@H](NC(=O)[C@H](CCCCN)NC(=O)[C@H](CS)NC(=O)[C@@H](NC(=O)[C@@H](N)CCCCN)[C@H](C)O)C(C)C)C(=O)O", "Activity": "> 2%"}

Lab note: next compound to report on.
Provide only the value of recorded Activity for `CC[C@H](C)[C@H](NC(=O)[C@H](CCCNC(=N)N)NC(=O)[C@H](CC(C)C)NC(=O)[C@H](CC(=O)O)NC(=O)[C@H](CCC(=O)O)NC(=O)[C@@H](NC(=O)[C@@H](NC(=O)[C@H](CO)NC(=O)CNC(=O)[C@H](CCCCN)NC(=O)[C@@H](N)CCCCN)[C@@H](C)CC)[C@@H](C)O)C(=O)N[C@H](C(=O)N[C@@H](CC(N)=O)C(=O)N[C@@H](CC(=O)O)C(=O)N[C@@H](CC(C)C)C(=O)N[C@@H](CCC(=O)O)C(=O)N1CCC[C@H]1C(=O)N[C@@H](CC(C)C)C(=O)N[C@@H](CC(=O)O)C(=O)N[C@@H](Cc1ccc(O)cc1)C(=O)O)C(C)C`
> 2%

###

species on record: Homo sapiens; assay: Binding affinity to RBC membrane receptor in 1 mg/mL trypsin pretreated human RBCs relative to untreated RBCs
value.type: Activity (%)
Unit % implied. Number only.

Example cases with answers are listed next.
{"substance": "H-ASLKETMNKIDTIEKKIEEFY-OH", "reading.unit": "%", "Activity": 87}
{"substance": "H-DNNKECLIDPLDVQKNLLNEY-OH", "reading.unit": "%", "Activity": 105}

Provide only the value of recorded Activity for `H-RLKENKDYDVVSSIIQHLDN-OH`
18

Provide only the value of recorded Activity for `H-YFFEYELRKKTQSFRNKNSI-OH`
83

Provide only the value of recorded Activity for `H-NYRRRKRITELRKILVEKLR-OH`
43

Provide only the value of recorded Activity for `H-FVLAPDEMVYLFYHGNEKKN-OH`
31

###

organism: Homo sapiens; experiment: Binding affinity to RBC membrane receptor in 1 mg/mL chymotrypsin pretreated human RBCs relative to untreated RBCs
Decide by Activity: equal to or exceeding 60% means Satisfied, less means Not satisfied.

Solved entries:
{"substance": "H-NYRRRKRITELRKILVEKLR-OH", "category.label": "Not satisfied"}
{"substance": "H-ASLKETMNKIDTIEKKIEEFY-OH", "category.label": "Not satisfied"}
{"substance": "H-RLKENKDYDVVSSIIQHLDN-OH", "category.label": "Satisfied"}

For this substance, is measured Activity 60% or higher? `H-FVLAPDEMVYLFYHGNEKKN-OH`
Satisfied

For this substance, is measured Activity 60% or higher? `H-YFFEYELRKKTQSFRNKNSI-OH`
Not satisfied
